assay protocol: Lipophilicity, LogD of compound at pH 10.5 by chromatography
Format: physicochemical
run parameters: buffer
readout name: chromatographic logD

{"smiles structure": "Nc1c2c(nc3ccc(-c4cccs4)cc13)CCCC2", "result number": 4.54}
{"smiles structure": "Nc1c2c(nc3ccc(-c4ccc(Cl)nc4)cc13)CCCC2", "result number": 4.15}
{"smiles structure": "COc1ncc(-c2ccc3nc4c(c(N)c3c2)CCCC4)c(OC)n1", "result number": 1.4}
{"smiles structure": "COc1ncc(-c2ccc3nc4c(c(N)c3c2)CCCC4)cn1", "result number": 3.2}
{"smiles structure": "Nc1c2c(nc3ccc(-c4ccncc4)cc13)CCCC2", "result number": 3.05}
{"smiles structure": "Nc1c2c(nc3ccc(-c4ccsc4)cc13)CCCC2", "result number": 4.48}
{"smiles structure": "Nc1c2c(nc3ccc(-c4ccc(Cl)s4)cc13)CCCC2", "result number": 5.42}
{"smiles structure": "Nc1c2c(nc3ccc(-c4ccoc4)cc13)CCCC2", "result number": 4.08}
{"smiles structure": "Nc1c2c(nc3ccc(Oc4ccccc4)cc13)CCCC2", "result number": 4.49}
{"smiles structure": "CN(C)c1cccc(-c2ccc3nc4c(c(N)c3c2)CCCC4)c1", "result number": 4.86}
{"smiles structure": "CC(C)COc1cccc(-c2ccc3nc4c(c(N)c3c2)CCCC4)c1", "result number": 5.79}
{"smiles structure": "Nc1c2c(nc3ccc(-c4ccc(F)nc4)cc13)CCCC2", "result number": 3.81}

---

assay protocol: Lipophilicity, LogD of compound at pH 7.4 by chromatography
Type: physicochemical
run parameters: buffer

{"smiles structure": "Nc1c2c(nc3ccc(-c4ccncc4)cc13)CCCC2", "chromatographic logD": 3.52}
{"smiles structure": "Nc1c2c(nc3ccc(-c4ccoc4)cc13)CCCC2", "chromatographic logD": 3.43}
{"smiles structure": "Nc1c2c(nc3ccc(-c4ccc(Cl)nc4)cc13)CCCC2", "chromatographic logD": 3.65}
{"smiles structure": "CC(C)COc1cccc(-c2ccc3nc4c(c(N)c3c2)CCCC4)c1", "chromatographic logD": 5.58}
{"smiles structure": "Nc1c2c(nc3ccc(-c4ccc(Cl)s4)cc13)CCCC2", "chromatographic logD": 4.86}
{"smiles structure": "Cc1ccc(-c2ccc3nc4c(c(N)c3c2)CCCC4)o1", "chromatographic logD": 4.06}
{"smiles structure": "Nc1c2c(nc3ccc(-c4cccs4)cc13)CCCC2", "chromatographic logD": 3.85}
{"smiles structure": "Nc1c2c(nc3ccc(-c4ccsc4)cc13)CCCC2", "chromatographic logD": 3.8}
{"smiles structure": "Nc1c2c(nc3ccc(Oc4ccccc4)cc13)CCCC2", "chromatographic logD": 3.82}
{"smiles structure": "Nc1c2c(nc3ccc(-c4ccc(F)nc4)cc13)CCCC2", "chromatographic logD": 3.24}

---

assay protocol: Tmax in plasma of male Balb/c mouse at 15 mg/kg, ip measured up to 120 mins
Assay type: ADME, organism-based
readout name: Tmax (min)

{"smiles structure": "Cc1csc(-c2ccc3nc4c(c(N)c3c2)CCCC4)c1", "result number": 15}

---

Reported chromatographic logD by item:
assay protocol: Lipophilicity, LogD of compound at pH 10.5 by chromatography
Assay type: physicochemical
run parameters: buffer

{"smiles structure": "COc1cc(-c2ccc3nc4c(c(N)c3c2)CCCC4)ccn1", "chromatographic logD": 3.99}
{"smiles structure": "Cc1csc(-c2ccc3nc4c(c(N)c3c2)CCCC4)c1", "chromatographic logD": 4.96}
{"smiles structure": "Nc1c2c(nc3ccc(-c4cncnc4)cc13)CCCC2", "chromatographic logD": 2.59}
{"smiles structure": "Cc1ccc(-c2ccc3nc4c(c(N)c3c2)CCCC4)o1", "chromatographic logD": 4.58}
